- measurement_target: T1, EsCas13d, nuclease-dead (Eubacterium siraeum, UniProt B0MS50, R295A;H300A;R849A;H854A)
- T1 sequence: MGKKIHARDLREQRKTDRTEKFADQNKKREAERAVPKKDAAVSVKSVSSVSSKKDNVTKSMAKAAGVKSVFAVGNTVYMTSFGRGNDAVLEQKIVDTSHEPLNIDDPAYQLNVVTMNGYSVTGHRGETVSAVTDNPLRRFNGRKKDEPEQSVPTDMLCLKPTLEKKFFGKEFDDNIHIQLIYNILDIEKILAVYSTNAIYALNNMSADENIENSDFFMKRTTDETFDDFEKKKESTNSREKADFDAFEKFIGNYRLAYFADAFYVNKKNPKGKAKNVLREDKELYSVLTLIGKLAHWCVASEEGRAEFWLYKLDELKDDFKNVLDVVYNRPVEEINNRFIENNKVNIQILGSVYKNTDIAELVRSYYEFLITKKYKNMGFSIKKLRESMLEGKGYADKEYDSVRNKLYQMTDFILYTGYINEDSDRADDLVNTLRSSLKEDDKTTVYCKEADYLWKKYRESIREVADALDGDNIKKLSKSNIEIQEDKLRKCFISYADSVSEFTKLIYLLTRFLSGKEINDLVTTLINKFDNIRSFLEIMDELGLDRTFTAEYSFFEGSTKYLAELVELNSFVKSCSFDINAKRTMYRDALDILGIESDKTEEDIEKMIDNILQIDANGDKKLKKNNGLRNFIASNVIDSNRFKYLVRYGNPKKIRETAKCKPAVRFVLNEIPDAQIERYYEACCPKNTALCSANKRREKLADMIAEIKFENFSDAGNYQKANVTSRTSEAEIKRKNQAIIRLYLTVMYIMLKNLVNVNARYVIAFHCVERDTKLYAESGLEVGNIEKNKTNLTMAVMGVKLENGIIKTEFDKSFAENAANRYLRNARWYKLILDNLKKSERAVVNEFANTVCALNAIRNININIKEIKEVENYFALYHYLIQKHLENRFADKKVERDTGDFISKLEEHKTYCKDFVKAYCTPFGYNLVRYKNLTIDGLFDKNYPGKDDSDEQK
- experiment_description: crRNA (strand 1, pre-loaded); Mg2+; 40 mM Tris-HCl pH 7.5, 150 mM NaCl, 6 mM MgCl2, 1 mM DTT, 0.1% Tween-20, 0.2 mg/ml BSA; 25 C; 10 min per concentration, then washed
- measurement_parameters: tags: His6-TwinStrep-SUMO cleaved; N-terminal SNAP kept (SNAP-Surface 488); label: 3' end held by stalled T7 RNA polymerase
readout_type: Kd
Write the quantity with the unit trailing the number.

Worked cases, Kd given:
# binder, obs_value
data = [
    ("target 1 MT 5'PFS CCG 3'PFS AAA (mixed) RNA 1: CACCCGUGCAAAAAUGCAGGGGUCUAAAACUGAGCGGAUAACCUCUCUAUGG RNA 2: GGGAAUGGAUCCACAUCUACGAAUUCCCGCCAUAGAGAGGUUAUCCGCUCAAAAAGAUCGGAAGAGCACACGU", "27.5 nM"),
    ("target 1 insA 3' of 15,insU 3' of 6 (mixed) RNA 1: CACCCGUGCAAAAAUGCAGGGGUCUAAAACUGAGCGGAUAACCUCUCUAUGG RNA 2: GGGAAUGGAUCCACAUCUACGAAUUCGUACCAUAGAGAAGGUUAUCCUGCUCACCGAGAUCGGAAGAGCACACGU", "11.3 nM"),
    ("target 1 insC 3' of 12,insU 3' of 5 (mixed) RNA 1: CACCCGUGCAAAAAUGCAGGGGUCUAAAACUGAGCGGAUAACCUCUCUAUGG RNA 2: GGGAAUGGAUCCACAUCUACGAAUUCGUACCAUAGAGAGGCUUAUCCGUCUCACCGAGAUCGGAAGAGCACACGU", "11.6 nM"),
]

Could you now look at the following binder, please?
Ask | Recorded Kd for target 2 MT 5'PFS GUC 3'PFS AAA (mixed) RNA 1: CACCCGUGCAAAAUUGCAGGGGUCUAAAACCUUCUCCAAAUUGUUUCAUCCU RNA 2: GGGAAUGGAUCCACAUCUACGAAUUCGUCAGGAUGAAACAAUUUGGAGAAGAAAAGAUCGGAAGAGCACACGU , please?
Reply | 8.8 nM
